- tgt: Cytochrome P450 3A4 (Homo sapiens, UniProt P08684)
- Sequence (P08684 whole entry): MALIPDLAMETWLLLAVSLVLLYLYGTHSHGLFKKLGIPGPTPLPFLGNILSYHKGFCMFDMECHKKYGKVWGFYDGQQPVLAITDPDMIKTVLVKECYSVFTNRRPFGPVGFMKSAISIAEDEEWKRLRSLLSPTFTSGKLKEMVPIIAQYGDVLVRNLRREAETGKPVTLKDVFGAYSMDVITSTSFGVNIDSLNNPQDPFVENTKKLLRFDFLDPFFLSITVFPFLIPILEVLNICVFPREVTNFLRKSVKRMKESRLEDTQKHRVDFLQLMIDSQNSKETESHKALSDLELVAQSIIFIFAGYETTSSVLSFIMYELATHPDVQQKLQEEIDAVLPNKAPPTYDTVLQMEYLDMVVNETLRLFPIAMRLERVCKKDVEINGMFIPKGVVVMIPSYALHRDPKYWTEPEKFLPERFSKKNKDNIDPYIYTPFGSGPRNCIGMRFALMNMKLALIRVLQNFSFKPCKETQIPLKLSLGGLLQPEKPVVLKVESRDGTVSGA
- experimental details: Inhibition of CYP3A4 (unknown origin)
- Type: ADME
pIC50: −log10 of the molar value.
observed property: pIC50

Exercise: Name the recorded pIC50 of the item COc1cc2ncnc(Nc3cccc(Cl)c3F)c2cc1OC(=O)N1CCN(C)C[C@H]1C [AZD-3759] in your answer.
Key: < 4.30

---

- experimental details: Elimination half life in Han Wistar rat at 2 mg/kg, po
- Assay type: ADME, organism-based
- experimental parameters: in vivo, read-out: beta t1/2 (converted)
observed property: half-life (h)
Number only, in h; omit the unit.

[[record]]
sample_smiles = "COc1cc2ncnc(Nc3cccc(Cl)c3F)c2cc1CN1CCOCC1"
observed_property = "half-life"
display_unit = "h"
reported = 1.1


Now let's try a different one.
Exercise: Name the recorded half-life of the item COc1cc2ncnc(Nc3cccc(Cl)c3F)c2cc1OC(=O)N1CCN(C)C[C@H]1C in your answer.
Key: 4.3
